System: CLK1
CONDITION NOTES: concentration: 1 μM, replicates: in singlicate; n = 1;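 also: KINOMEscan kinase panel screen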
Measured %Inh by item
Could you give the number and then its unit, please?

Note %Inh for the molecule shown: Cn1ccc2ncnc(Oc3ccc(Nc4nc5ccccc5[nH]4)cc3)c21
0%

Note %Inh for the molecule shown: COc1ccc(Nc2nccc(-c3cccc(NC(=O)c4cc5cc(F)ccc5[nH]4)c3)n2)cc1 [GSK1229782]
33%

Note %Inh for the molecule shown: COc1cccc(NC(=O)NC2CCN(c3ccnc(Nc4ccc(F)cc4)n3)C2)c1 (stereo not drawn) [GSK1379721]
25%

----------
Test system: CDK3
CONDITION NOTES: concentration: 1 μM, replicates: in singlicate; n = 1
MEASURED ENDPOINT: %Inh (%)
The reply should contain only the number, in %.

The cases that follow already have their %Inh on record.
> print(dat)
                                   compound  reported.result
1        Cc1cccc(-c2nc(C)cc(Nc3ccncc3)n2)n1                0
2  CS(=O)(=O)c1ccc(-c2nc3n(c2-c2ccncc2)CCC3)cc1               28
3  Cn1ccc2ncnc(Oc3ccc(Nc4nc5ccccc5[nH]4)cc3)c21                0
4  COc1ccc(Nc2nccc(-c3cccc(NC(=O)c4cc5cc(F)ccc5[nH]4)c3)n2)cc1               20
5  Cl.Oc1ccc(-c2nc(-c3ccccc3)[nH]c2-c2ccncc2)cc1               55

Note %Inh for the compound shown: Cc1cccc(-c2nc(Nc3ccc4[nH]ncc4c3)c3ccccc3n2)n1
0

Note %Inh for the compound shown: Cl.NC(=O)c1cccc(Nc2nccc(Nc3ccc(Oc4cccc(Cl)c4)c(Cl)c3)n2)c1
24

Note %Inh for the compound shown: Nc1nc(-c2nccs2)c(-c2ccnc3ccccc23)s1
7

Note %Inh for the compound shown: CS(=O)(=O)c1ccc(-c2c(-c3ncn[nH]3)sc(N3CCOCC3)c2C#N)cc1
17

Note %Inh for the compound shown: Cc1ccc(C(=O)Nc2ccc(Nc3ccnc4cc(-c5ccccn5)ccc34)cc2O)cc1.Cl
5

Note %Inh for the compound shown: CCCc1ccc(S(=O)(=O)NC2CCN(c3ccnc(Nc4ccc(F)cc4)n3)C2)cc1 (stereo not shown)
22

Note %Inh for the compound shown: COC(=O)c1c(-c2ccccc2)c2cc(C(=O)O)ccc2c(=O)n1Cc1ccccc1
0

Note %Inh for the compound shown: COc1ccc(C2=C(Nc3cccc(C(=O)O)c3)C(=O)NC2=O)cc1
7
